# MEASURED_TARGET: STK36 (human)
# ASSAY: KINOMEscan competition binding
# STUDY_CONDITIONS: compound 10.0 µM
Measured kinase still bound, per cent of control values are reported for all entries that follow.
Respond numerically; units are % and should not be typed.

Solved entries (count: 3):
CCN(CCO)CCCOc1ccc2c(Nc3cc(CC(=O)Nc4cccc(F)c4)[nH]n3)ncnc2c1    37
CCOc1cc(N2CCC(O)CC2)ccc1Nc1ncc2c(n1)N(C)c1ccccc1C(=O)N2C    100
N#C/C(=C1/Nc2ccccc2S1)c1ccnc(NCCc2cccnc2)n1    100

Inquiry: Any idea what kinase still bound, per cent of control was measured for CCN1CCN(Cc2ccc(NC(=O)c3ccc(C)c(/C=C/c4cnc5[nH]ccc5c4OC)c3)cc2C(F)(F)F)CC1 ?
Reply text: 0.3

---

Measured kinase still bound, per cent of control values are reported for all entries that follow.
# MEASURED_TARGET: UniProt O14730
# Sequence (O14730 whole entry, looked up): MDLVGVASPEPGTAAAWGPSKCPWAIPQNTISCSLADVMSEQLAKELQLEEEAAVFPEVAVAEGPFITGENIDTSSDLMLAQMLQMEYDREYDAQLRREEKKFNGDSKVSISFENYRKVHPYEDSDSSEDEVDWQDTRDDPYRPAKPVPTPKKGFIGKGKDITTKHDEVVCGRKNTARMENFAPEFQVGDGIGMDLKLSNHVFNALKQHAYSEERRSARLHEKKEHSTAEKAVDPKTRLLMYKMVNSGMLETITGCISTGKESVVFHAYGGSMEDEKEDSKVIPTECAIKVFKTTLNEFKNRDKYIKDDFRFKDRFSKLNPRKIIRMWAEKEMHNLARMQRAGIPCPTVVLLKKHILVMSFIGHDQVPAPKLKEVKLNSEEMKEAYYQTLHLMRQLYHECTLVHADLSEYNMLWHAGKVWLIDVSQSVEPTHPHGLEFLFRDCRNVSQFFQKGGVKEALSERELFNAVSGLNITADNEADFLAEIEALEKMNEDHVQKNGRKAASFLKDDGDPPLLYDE
# ASSAY: KINOMEscan competition binding
# STUDY_CONDITIONS: compound 10.0 µM
Respond numerically; units are % and should not be typed.

Solved entries (count: 5):
COc1ccc(N(C(=O)Oc2cc(C(=O)Nc3cccc(C(F)(F)F)c3)ccc2C)c2ccnc(Nc3ccc(N4CCN(C)CC4)cc3)n2)c(OC)c1    100
C=CC(=O)Nc1ccc(C(=O)c2sc(Nc3ccc(N4CCN(C)CC4)cc3OC)nc2N)cc1    61
COc1cc2ncnc(Nc3cccc(Cl)c3)c2cc1OC    78
N#Cc1cc(-c2ccnc(Nc3ccc(-n4cnc(-c5cccnc5)n4)cc3)n2)cc(N2CCOCC2)c1    3.2
O=c1[nH]c2ccccc2n1C1CCN(Cc2ccc(-c3nc4cc5[nH]cnc5cc4nc3-c3ccccc3)cc2)CC1    64

Inquiry: Any idea what kinase still bound, per cent of control was measured for COc1cc(C)c(Sc2cnc(NC(=O)c3ccc(CNC(C)C(C)C)cc3)s2)cc1C(=O)N1CCN(C(C)=O)CC1 (stereo not drawn) ?
Reply text: 100

Inquiry: Field entry: CNC(=O)Nc1ccc(-c2nc(N3CC4CCC(C3)O4)c3cnn(C4CCC5(CC4)OCCO5)c3n2)cc1
Reply text: 100

Inquiry: Field entry: CCOc1cc(N2CCC(O)CC2)ccc1Nc1ncc2c(n1)N(C)c1ccccc1C(=O)N2C
Reply text: 100

---

# MEASURED_TARGET: UniProt:Q12852
# Sequence (Q12852 whole entry, looked up): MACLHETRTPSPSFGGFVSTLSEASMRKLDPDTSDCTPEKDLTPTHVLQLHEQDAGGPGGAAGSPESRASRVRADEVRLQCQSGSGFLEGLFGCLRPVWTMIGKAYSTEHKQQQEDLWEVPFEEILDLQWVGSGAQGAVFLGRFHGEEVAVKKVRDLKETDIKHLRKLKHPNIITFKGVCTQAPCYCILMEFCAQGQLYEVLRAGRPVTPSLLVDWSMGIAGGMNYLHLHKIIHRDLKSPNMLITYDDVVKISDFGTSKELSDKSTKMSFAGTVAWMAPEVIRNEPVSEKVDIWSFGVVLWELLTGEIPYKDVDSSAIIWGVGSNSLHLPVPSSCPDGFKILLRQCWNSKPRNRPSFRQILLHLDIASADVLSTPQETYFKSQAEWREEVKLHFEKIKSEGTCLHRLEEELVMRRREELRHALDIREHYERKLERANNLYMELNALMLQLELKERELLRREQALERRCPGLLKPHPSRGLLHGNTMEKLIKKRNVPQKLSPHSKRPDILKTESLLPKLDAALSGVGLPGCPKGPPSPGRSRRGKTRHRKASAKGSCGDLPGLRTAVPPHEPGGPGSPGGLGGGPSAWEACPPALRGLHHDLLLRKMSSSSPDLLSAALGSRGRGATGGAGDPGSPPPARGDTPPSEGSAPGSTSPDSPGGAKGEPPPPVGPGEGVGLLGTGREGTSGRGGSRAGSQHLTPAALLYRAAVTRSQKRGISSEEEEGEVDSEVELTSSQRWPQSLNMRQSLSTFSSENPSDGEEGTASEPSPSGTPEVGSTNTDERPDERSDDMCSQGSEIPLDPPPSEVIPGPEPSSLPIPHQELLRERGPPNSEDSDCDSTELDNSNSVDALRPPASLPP
# ASSAY: KINOMEscan competition binding
# STUDY_CONDITIONS: compound 10.0 µM
Values of kinase still bound, per cent of control strictly less than 60% map to criterion met, and values of at least 60% map to criterion not met.

Solved cases below.
CCN(CCO)CCCOc1ccc2c(Nc3cc(CC(=O)Nc4cccc(F)c4)[nH]n3)ncnc2c1    criterion met
CCN1CCN(Cc2ccc(NC(=O)c3ccc(C)c(/C=C/c4cnc5[nH]ccc5c4OC)c3)cc2C(F)(F)F)CC1    criterion met
CCOc1cc(N2CCC(O)CC2)ccc1Nc1ncc2c(n1)N(C)c1ccccc1C(=O)N2C    criterion not met
CNC(=O)Nc1ccc(-c2nc(N3CC4CCC(C3)O4)c3cnn(C4CCC5(CC4)OCCO5)c3n2)cc1    criterion not met
CCc1nc(-c2cccc(C)c2)c(-c2ccnc(NC(=O)c3ccccc3)c2)s1    criterion not met
CC1=C(C(=O)Nc2cc3cn[nH]c3cc2F)C(c2ccc(C(F)(F)F)cc2)CC(=O)N1 (centres undefined)    criterion not met
C=CC(=O)Nc1ccc(C(=O)c2sc(Nc3ccc(N4CCN(C)CC4)cc3OC)nc2N)cc1    criterion not met
CCCS(=O)(=O)Nc1ccc(F)c(C(=O)c2c[nH]c3ncc(Cl)cc23)c1F    criterion met

Then there is this molecule:
Inquiry: Lab log: compare recorded kinase still bound, per cent of control with 60%; is it strictly lower for N#Cc1cc(-c2ccnc(Nc3ccc(-n4cnc(-c5cccnc5)n4)cc3)n2)cc(N2CCOCC2)c1 ?
Reply text: criterion not met

---

# MEASURED_TARGET: FER (human) (UniProt P16591)
# Sequence (P16591 whole entry, looked up): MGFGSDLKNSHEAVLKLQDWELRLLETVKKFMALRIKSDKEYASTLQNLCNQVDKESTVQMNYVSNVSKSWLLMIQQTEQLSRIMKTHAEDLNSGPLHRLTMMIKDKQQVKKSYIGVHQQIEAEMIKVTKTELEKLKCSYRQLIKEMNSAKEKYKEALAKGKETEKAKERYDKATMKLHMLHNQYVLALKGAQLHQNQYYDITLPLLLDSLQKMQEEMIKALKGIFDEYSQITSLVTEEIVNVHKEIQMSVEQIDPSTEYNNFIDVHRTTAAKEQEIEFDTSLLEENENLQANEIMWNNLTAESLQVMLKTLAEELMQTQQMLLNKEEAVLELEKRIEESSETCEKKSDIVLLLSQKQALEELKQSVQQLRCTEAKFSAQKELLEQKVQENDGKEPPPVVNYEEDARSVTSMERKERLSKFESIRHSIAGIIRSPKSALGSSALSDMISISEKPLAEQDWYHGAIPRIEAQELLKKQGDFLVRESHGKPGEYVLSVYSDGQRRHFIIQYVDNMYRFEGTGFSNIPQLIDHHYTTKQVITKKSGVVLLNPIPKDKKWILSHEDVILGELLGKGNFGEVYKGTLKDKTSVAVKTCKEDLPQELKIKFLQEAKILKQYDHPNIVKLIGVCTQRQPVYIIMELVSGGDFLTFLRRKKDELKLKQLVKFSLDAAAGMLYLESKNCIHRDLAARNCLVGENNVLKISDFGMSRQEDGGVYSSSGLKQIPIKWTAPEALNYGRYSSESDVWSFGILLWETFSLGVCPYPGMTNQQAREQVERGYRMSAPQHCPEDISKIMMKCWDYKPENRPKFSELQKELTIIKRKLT
# ASSAY: KINOMEscan competition binding
# STUDY_CONDITIONS: compound 10.0 µM
TEST_READOUT: kinase still bound, per cent of control (%)
Respond numerically; units are % and should not be typed.

Solved entries (count: 3):
CCc1nc(-c2cccc(C)c2)c(-c2ccnc(NC(=O)c3ccccc3)c2)s1    60
CC1=C(C(=O)Nc2cc3cn[nH]c3cc2F)C(c2ccc(C(F)(F)F)cc2)CC(=O)N1 (centres undefined)    100
N#C/C(=C1/Nc2ccccc2S1)c1ccnc(NCCc2cccnc2)n1    100

Inquiry: Any idea what kinase still bound, per cent of control was measured for CCOc1cc(N2CCC(O)CC2)ccc1Nc1ncc2c(n1)N(C)c1ccccc1C(=O)N2C ?
Reply text: 100

Inquiry: Field entry: CCN1CCN(Cc2ccc(NC(=O)c3ccc(C)c(/C=C/c4cnc5[nH]ccc5c4OC)c3)cc2C(F)(F)F)CC1
Reply text: 27

Inquiry: Field entry: N#Cc1cc(-c2ccnc(Nc3ccc(-n4cnc(-c5cccnc5)n4)cc3)n2)cc(N2CCOCC2)c1
Reply text: 99

Inquiry: Field entry: CCCS(=O)(=O)Nc1ccc(F)c(C(=O)c2c[nH]c3ncc(Cl)cc23)c1F
Reply text: 58

Inquiry: Field entry: CC(=O)c1c(C)c2cnc(Nc3ccc(N4CCNCC4)cn3)nc2n(C2CCCC2)c1=O
Reply text: 47

Inquiry: Field entry: COc1ccc(N(C(=O)Oc2cc(C(=O)Nc3cccc(C(F)(F)F)c3)ccc2C)c2ccnc(Nc3ccc(N4CCN(C)CC4)cc3)n2)c(OC)c1
Reply text: 4.4

---

# MEASURED_TARGET: PRKG1 (human) (UniProt Q13976)
# Sequence (Q13976 whole entry, looked up): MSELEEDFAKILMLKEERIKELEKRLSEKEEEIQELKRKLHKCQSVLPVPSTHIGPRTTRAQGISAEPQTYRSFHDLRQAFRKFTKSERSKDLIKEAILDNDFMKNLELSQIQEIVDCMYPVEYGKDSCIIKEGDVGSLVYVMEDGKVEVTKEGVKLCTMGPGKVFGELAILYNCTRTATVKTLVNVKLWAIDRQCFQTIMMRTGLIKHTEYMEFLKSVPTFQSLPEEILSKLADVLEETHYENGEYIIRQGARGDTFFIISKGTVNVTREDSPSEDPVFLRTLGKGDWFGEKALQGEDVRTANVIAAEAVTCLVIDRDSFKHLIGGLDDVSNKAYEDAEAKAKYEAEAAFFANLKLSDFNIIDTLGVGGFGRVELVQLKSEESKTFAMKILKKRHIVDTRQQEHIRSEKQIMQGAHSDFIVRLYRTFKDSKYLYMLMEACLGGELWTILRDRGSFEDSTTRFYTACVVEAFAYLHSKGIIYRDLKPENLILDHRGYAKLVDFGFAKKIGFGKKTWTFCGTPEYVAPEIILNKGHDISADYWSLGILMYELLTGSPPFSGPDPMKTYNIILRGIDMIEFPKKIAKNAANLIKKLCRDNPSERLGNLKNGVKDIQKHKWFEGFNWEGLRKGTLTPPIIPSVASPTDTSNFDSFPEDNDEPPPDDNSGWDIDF
# ASSAY: KINOMEscan competition binding
# STUDY_CONDITIONS: compound 10.0 µM
TEST_READOUT: kinase still bound, per cent of control (%)
Respond numerically; units are % and should not be typed.

Solved entries (count: 4):
COc1cc2c(Nc3ccc(NC(=O)c4ccccc4)cc3)ncnc2cc1OCCCN1CCOCC1    100
C=CC(=O)Nc1ccc(C(=O)c2sc(Nc3ccc(N4CCN(C)CC4)cc3OC)nc2N)cc1    74
CC1=C(C(=O)Nc2cc3cn[nH]c3cc2F)C(c2ccc(C(F)(F)F)cc2)CC(=O)N1 (configuration not stated)    15
N#Cc1cc(-c2ccnc(Nc3ccc(-n4cnc(-c5cccnc5)n4)cc3)n2)cc(N2CCOCC2)c1    100

Inquiry: Lab request: please report kinase still bound, per cent of control under test system PRKG1 (human) (UniProt Q13976) for CCCS(=O)(=O)Nc1ccc(F)c(C(=O)c2c[nH]c3ncc(Cl)cc23)c1F
Reply text: 100

Inquiry: Field entry: CNC(=O)Nc1ccc(-c2nc(N3CC4CCC(C3)O4)c3cnn(C4CCC5(CC4)OCCO5)c3n2)cc1
Reply text: 100

Inquiry: Field entry: CCOc1cc(N2CCC(O)CC2)ccc1Nc1ncc2c(n1)N(C)c1ccccc1C(=O)N2C
Reply text: 100

---

Measured kinase still bound, per cent of control values are reported for all entries that follow.
# MEASURED_TARGET: CDKL5 (human)
# ASSAY: KINOMEscan competition binding
# STUDY_CONDITIONS: compound 10.0 µM
Respond numerically; units are % and should not be typed.

Solved entries (count: 4):
Cc1cn(-c2cc(C(=O)Nc3ccc(C)c(NC(=O)c4ccno4)c3)cc(C(F)(F)F)c2)cn1    100
N#C/C(=C1/Nc2ccccc2S1)c1ccnc(NCCc2cccnc2)n1    82
N#Cc1cc(-c2ccnc(Nc3ccc(-n4cnc(-c5cccnc5)n4)cc3)n2)cc(N2CCOCC2)c1    7
CNC(=O)Nc1ccc(-c2nc(N3CC4CCC(C3)O4)c3cnn(C4CCC5(CC4)OCCO5)c3n2)cc1    79

Consider now this further compound.
Inquiry: Lab request: please report kinase still bound, per cent of control under test system CDKL5 (human) for CCc1nc(-c2cccc(C)c2)c(-c2ccnc(NC(=O)c3ccccc3)c2)s1
Reply text: 100

---

# MEASURED_TARGET: CDKL1 (human) (UniProt Q00532)
# Sequence (Q00532 whole entry, looked up): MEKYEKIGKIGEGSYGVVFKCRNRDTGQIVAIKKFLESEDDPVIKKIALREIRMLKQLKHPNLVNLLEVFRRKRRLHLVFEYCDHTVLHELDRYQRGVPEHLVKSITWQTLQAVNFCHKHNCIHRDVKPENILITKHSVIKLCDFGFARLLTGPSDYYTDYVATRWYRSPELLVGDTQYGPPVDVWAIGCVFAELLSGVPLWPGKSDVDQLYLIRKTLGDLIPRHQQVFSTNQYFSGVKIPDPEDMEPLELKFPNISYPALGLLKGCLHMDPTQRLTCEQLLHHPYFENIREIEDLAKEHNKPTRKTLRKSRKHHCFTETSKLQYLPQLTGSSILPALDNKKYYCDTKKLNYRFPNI
# ASSAY: KINOMEscan competition binding
# STUDY_CONDITIONS: compound 10.0 µM
TEST_READOUT: kinase still bound, per cent of control (%)
Respond numerically; units are % and should not be typed.

Solved entries (count: 8):
CCCS(=O)(=O)Nc1ccc(F)c(C(=O)c2c[nH]c3ncc(Cl)cc23)c1F    93
CCN1CCN(Cc2ccc(NC(=O)c3ccc(C)c(/C=C/c4cnc5[nH]ccc5c4OC)c3)cc2C(F)(F)F)CC1    61
COc1cc2c(Nc3ccc(NC(=O)c4ccccc4)cc3)ncnc2cc1OCCCN1CCOCC1    81
CC(=O)c1c(C)c2cnc(Nc3ccc(N4CCNCC4)cn3)nc2n(C2CCCC2)c1=O    35
O=c1[nH]c2ccccc2n1C1CCN(Cc2ccc(-c3nc4cc5[nH]cnc5cc4nc3-c3ccccc3)cc2)CC1    84
CCc1nc(-c2cccc(C)c2)c(-c2ccnc(NC(=O)c3ccccc3)c2)s1    100
C=CC(=O)Nc1ccc(C(=O)c2sc(Nc3ccc(N4CCN(C)CC4)cc3OC)nc2N)cc1    100
N#C/C(=C1/Nc2ccccc2S1)c1ccnc(NCCc2cccnc2)n1    45

Consider now this further compound.
Inquiry: Any idea what kinase still bound, per cent of control was measured for CCN(CCO)CCCOc1ccc2c(Nc3cc(CC(=O)Nc4cccc(F)c4)[nH]n3)ncnc2c1 ?
Reply text: 84
